system: Streptococcus pyogenes C203; type: cell-based; settings: Streptococcus pyogenes C203; agar dilution
quantity: MIC (µg/mL)

>>> value_reported("CN[C@H](CC(C)C)C(=O)N[C@H]1C(=O)N[C@@H](CC(N)=O)C(=O)N[C@H]2C(=O)N[C@H]3C(=O)N[C@H](C(=O)N[C@H](C(=O)O)c4cc(O)cc(O)c4-c4cc3ccc4O)[C@H](O)c3ccc(c(Cl)c3)Oc3cc2cc(c3O[C@@H]2O[C@H](CO)[C@@H](O)[C@H](O)[C@H]2O[C@H]2C[C@](C)(N)[C@@H](O)[C@H](C)O2)Oc2ccc(cc2Cl)[C@H]1O [Reduced A83850B]")
0.5
>>> value_reported("CN[C@H](CC(C)C)C(=O)N[C@H]1C(=O)N[C@@H](CC(N)=O)C(=O)N[C@H]2C(=O)N[C@H]3C(=O)N[C@H](C(=O)N[C@H](C(=O)O)c4cc(O)cc(O)c4-c4cc3ccc4O)[C@H](O)c3ccc(c(Cl)c3)Oc3cc2cc(c3O[C@@H]2O[C@H](CO)[C@@H](O)[C@H](O)[C@H]2O[C@H]2C[C@](C)(N)C(=O)[C@H](C)O2)Oc2ccc(cc2Cl)[C@H]1O [A83850B]")
0.5
>>> value_reported("CC(C)C[C@H](C(=O)N[C@H]1C(=O)N[C@@H](CC(N)=O)C(=O)N[C@H]2C(=O)N[C@H]3C(=O)N[C@H](C(=O)N[C@H](C(=O)O)c4cc(O)cc(O)c4-c4cc3ccc4O)[C@H](O)c3ccc(c(Cl)c3)Oc3cc2cc(c3O[C@@H]2O[C@H](CO)[C@@H](O)[C@H](O)[C@H]2O[C@H]2C[C@](C)(N)C(=O)[C@H](C)O2)Oc2ccc(cc2Cl)[C@H]1O)N(C)C [A83850A]")
1.0
>>> value_reported("CC(C)C[C@H](C(=O)N[C@H]1C(=O)N[C@@H](CC(N)=O)C(=O)N[C@H]2C(=O)N[C@H]3C(=O)N[C@H](C(=O)N[C@H](C(=O)O)c4cc(O)cc(O)c4-c4cc3ccc4O)[C@H](O)c3ccc(c(Cl)c3)Oc3cc2cc(c3O[C@@H]2O[C@H](CO)[C@@H](O)[C@H](O)[C@H]2O[C@H]2C[C@](C)(N)[C@@H](O)[C@H](C)O2)Oc2ccc(cc2Cl)[C@H]1O)N(C)C [Reduced A83850A]")
2.0

----------
system: Staphylococcus epidermidis 270; assay type: cell-based; conditions: Staphylococcus epidermidis 270; agar dilution
quantity: MIC (µg/mL)

>>> value_reported("CN[C@H](CC(C)C)C(=O)N[C@H]1C(=O)N[C@@H](CC(N)=O)C(=O)N[C@H]2C(=O)N[C@H]3C(=O)N[C@H](C(=O)N[C@H](C(=O)O)c4cc(O)cc(O)c4-c4cc3ccc4O)[C@H](O)c3ccc(c(Cl)c3)Oc3cc2cc(c3O[C@@H]2O[C@H](CO)[C@@H](O)[C@H](O)[C@H]2O[C@H]2C[C@](C)(N)[C@@H](O)[C@H](C)O2)Oc2ccc(cc2Cl)[C@H]1O [Reduced A83850B]")
2.0

----------
tested on: Culture A83850 (Amycolatopsis albus NRRL 18532); assay: Resistance of culture A83850 to antibiotics, sensitivity discs on seeded ISP No. 2 agar plates; assay type: cell-based; conditions: disc content printed per antibiotic
Positions of bridges follow the written chain, without caps; N, C: chain ends. Non-standard residues stand in square brackets, D forms with d. Residues, ends and D or L forms follow the SMILES beside them. *: point of attachment. Ileψ(thiazoline)Cys = CC[C@H](C)[C@H](N)C1=N[C@H](C(=O)*)CS1; dOrn = NCCC[C@@H](N)C(=O)O
quantity: Resistance or inhibition of culture A83850 by antibiotic disc

>>> value_reported("CC[C@H](C)[C@H](N)C1=N[C@H](C(=O)N[C@@H](CC(C)C)C(=O)N[C@H](CCC(=O)O)C(=O)N[C@H](C(=O)N[C@H]2CCCCNC(=O)[C@H](CC(N)=O)NC(=O)[C@@H](CC(=O)O)NC(=O)[C@H](Cc3cnc[nH]3)NC(=O)[C@@H](Cc3ccccc3)NC(=O)[C@H]([C@@H](C)CC)NC(=O)[C@@H](CCCN)NC2=O)[C@@H](C)CC)CS1 [bacitracin] ({Ileψ(thiazoline)Cys}-L[dE]IK[dOrn]I[dF]H[dD]N; lactam 4-C)")
"resistant"
>>> value_reported("CO[C@H]1C[C@H](O[C@H]2[C@H](C)[C@@H](O[C@@H]3O[C@H](C)C[C@H](N(C)C)[C@H]3O)[C@@H](C)C[C@@]3(CO3)C(=O)[C@H](C)[C@@H](O)[C@@H](C)[C@@H](C)OC(=O)[C@@H]2C)O[C@@H](C)[C@@H]1O")
"resistant"
>>> value_reported("NC[C@H]1O[C@H](O[C@H]2[C@H](O)[C@@H](O[C@H]3O[C@H](CO)[C@@H](O)[C@H](N)[C@H]3O)[C@H](N)C[C@@H]2N)[C@H](N)C[C@@H]1O")
"inhibited"
>>> value_reported("CN[C@H](CC(C)C)C(=O)N[C@H]1C(=O)N[C@@H](CC(N)=O)C(=O)N[C@H]2C(=O)N[C@H]3C(=O)N[C@H](C(=O)N[C@H](C(=O)O)c4cc(O)cc(O)c4-c4cc3ccc4O)[C@H](O)c3ccc(c(Cl)c3)Oc3cc2cc(c3O[C@@H]2O[C@H](CO)[C@@H](O)[C@H](O)[C@H]2O[C@H]2C[C@](C)(N)[C@H](O)[C@H](C)O2)Oc2ccc(cc2Cl)[C@H]1O [Vancomycin, vancomycin, reference compound]")
"inhibited"
>>> value_reported("CCC[C@@H]1C[C@@H](C(=O)N[C@@H]([C@H]2O[C@H](SC)[C@H](O)[C@@H](O)[C@H]2O)[C@@H](C)O)N(C)C1")
"inhibited"
>>> value_reported("CC(=O)OCC1=C(C(=O)O)N2C(=O)[C@@H](NC(=O)Cc3cccs3)[C@H]2SC1")
"inhibited"
>>> value_reported("CC1(C)S[C@@H]2[C@H](NC(=O)Cc3ccccc3)C(=O)N2[C@H]1C(=O)O")
"inhibited"
>>> value_reported("CN(C)[C@@H]1C(O)=C(C(N)=O)C(=O)[C@@]2(O)C(O)=C3C(=O)c4c(O)cccc4[C@@](C)(O)[C@H]3C[C@@H]12")
"resistant"
>>> value_reported("[H]/N=C(/N)N[C@H]1[C@H](O)[C@@H](O)[C@H](O[C@@H]2O[C@@H](C)[C@](O)(C=O)[C@H]2O[C@@H]2O[C@@H](CO)[C@H](O)[C@@H](O)[C@@H]2NC)[C@@H](N/C(N)=N\\[H])[C@@H]1O")
"inhibited"
>>> value_reported("CO[C@H]1/C=C/O[C@@]2(C)Oc3c(C)c(O)c4c(O)c(c(/C=N/N5CCN(C)CC5)c(O)c4c3C2=O)NC(=O)/C(C)=C\\C=C\\[C@H](C)[C@H](O)[C@@H](C)[C@@H](O)[C@@H](C)[C@H](OC(C)=O)[C@@H]1C")
"resistant"

Hey, just so you know, these numbers are from patent US5187082A.
